Every entry's value here was drawn from patent US20240166635A1.

# maps each entry to its IC50
Assay target: CDK4/Cyclin D1 (Homo sapiens (Human))
Protocol description: CDK4/CyclinD1 kinase inhibitory activity (Caliper mobility shift)

Guide cases for IC50, answers given:
{"Compound": "Cn1cc(S(=O)(=O)N2CCC(Nc3ncc(C(F)(F)F)c(OC4CCOCC4(C)O)n3)CC2)cn1 (single isomer, unassigned) [Example 125a]", "IC50": "< 10 nM"}
{"Compound": "CC1(COc2nc(NC3CCN(S(C)(=O)=O)CC3)ncc2C#N)CCC1", "IC50": "< 10 nM"}

# get_value(readout='IC50', item= N#Cc1cnc(Nc2ccc(S(N)(=O)=O)cc2)nc1-c1cccc(C2CC2)c1 )
10 to 100 nM

Check N#Cc1cnc(Nc2ccc(S(N)(=O)=O)cc2)nc1OC1CCCC1 too.
10 to 100 nM

Check CS(=O)(=O)N1CCC(Nc2ncc(C(F)(F)F)c(OC3CCC3)n2)CC1 too.
10 to 100 nM

---

Assay target: CDK4/Cyclin D1 (Homo sapiens (Human), UniProt P11802)
Sequence (P11802 whole entry): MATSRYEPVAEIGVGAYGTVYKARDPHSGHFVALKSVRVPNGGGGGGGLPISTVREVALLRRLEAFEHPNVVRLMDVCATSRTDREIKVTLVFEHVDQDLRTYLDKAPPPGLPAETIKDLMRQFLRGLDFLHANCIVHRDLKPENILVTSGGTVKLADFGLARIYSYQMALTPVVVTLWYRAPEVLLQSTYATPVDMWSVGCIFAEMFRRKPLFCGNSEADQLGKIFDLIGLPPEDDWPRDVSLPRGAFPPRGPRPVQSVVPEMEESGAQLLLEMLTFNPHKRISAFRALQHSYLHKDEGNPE
Sequence (P24385 whole entry partner): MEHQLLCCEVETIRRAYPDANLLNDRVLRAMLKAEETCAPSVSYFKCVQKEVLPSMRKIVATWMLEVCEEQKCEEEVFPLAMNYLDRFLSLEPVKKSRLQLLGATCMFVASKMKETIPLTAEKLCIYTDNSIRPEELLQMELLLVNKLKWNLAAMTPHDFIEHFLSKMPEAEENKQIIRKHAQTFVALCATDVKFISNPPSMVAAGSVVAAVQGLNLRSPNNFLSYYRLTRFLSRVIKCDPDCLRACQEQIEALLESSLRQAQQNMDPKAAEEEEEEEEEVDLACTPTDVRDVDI
Protocol description: CDK4/CyclinD1 kinase inhibitory activity (Caliper mobility shift)
pIC50: −log10 of the molar value.
# maps each entry to its pIC50

Guide cases for pIC50, answers given:
{"Molecule": "N#Cc1cnc(Nc2ccc(S(N)(=O)=O)cc2)nc1OCC1CCC1", "pIC50": "7.00 to 8.00"}
{"Molecule": "CN1CCC(NS(=O)(=O)c2ccc(Nc3ncc(Cl)c(OC4CCCC4O)n3)cc2)CC1 (single isomer, unassigned) [Example 139a]", "pIC50": "6.00 to 7.00"}
{"Molecule": "[2H]C([2H])([2H])NS(=O)(=O)c1ccc(Nc2ncc(CC)c(OC3CCCC3O)n2)cc1 (single isomer, unassigned) [Example 149a]", "pIC50": "6.00 to 7.00"}
{"Molecule": "CCS(=O)(=O)N1CCC(Nc2ncc(C#N)c(OC3CCCC3(C)O)n2)CC1 (single isomer, unassigned) [Example 36b]", "pIC50": "> 8.00"}
{"Molecule": "CC1(O)CCCC1Oc1nc(NC2CCN(S(=O)(=O)CC(F)(F)F)CC2)ncc1C#N (single isomer, unassigned) [Example 43a]", "pIC50": "> 8.00"}

Let us examine a further case.
# get_value(readout='pIC50', item= Cc1cnc(Nc2ccc(S(=O)(=O)NC(C)C)cc2)nc1OC1CCCC1O (single isomer, unassigned) [Example 147a] )
≤ 6.00

---

Assay target: CDK4/Cyclin D1 (Homo sapiens (Human), UniProt P11802)
Protocol description: CDK4/CyclinD1 kinase inhibitory activity (Caliper mobility shift)
pIC50: −log10 of the molar value.
# maps each entry to its pIC50

{"Compound": "[2H]C([2H])([2H])NS(=O)(=O)c1ccc(Nc2ncc(CC)c(OC3COCCC3(C)O)n2)cc1 (single isomer, unassigned) [Example 153a]", "pIC50": "6.00 to 7.00"}
{"Compound": "Cn1cnc(S(=O)(=O)N2CCC(Nc3ncc(C#N)c(OC4CCCC4(C)O)n3)CC2)n1 (single isomer, unassigned) [Example 51a]", "pIC50": "7.00 to 8.00"}

Let us examine a further case.
# get_value(readout='pIC50', item= CC1(O)CCC(F)(F)CC1Oc1nc(NC2CCN(S(C)(=O)=O)CC2)ncc1C#N (single isomer, unassigned) [Example 46a] )
6.00 to 7.00
